Molecular target: Melatonin receptor type 1A (Homo sapiens)
Sequence (P48039 whole entry): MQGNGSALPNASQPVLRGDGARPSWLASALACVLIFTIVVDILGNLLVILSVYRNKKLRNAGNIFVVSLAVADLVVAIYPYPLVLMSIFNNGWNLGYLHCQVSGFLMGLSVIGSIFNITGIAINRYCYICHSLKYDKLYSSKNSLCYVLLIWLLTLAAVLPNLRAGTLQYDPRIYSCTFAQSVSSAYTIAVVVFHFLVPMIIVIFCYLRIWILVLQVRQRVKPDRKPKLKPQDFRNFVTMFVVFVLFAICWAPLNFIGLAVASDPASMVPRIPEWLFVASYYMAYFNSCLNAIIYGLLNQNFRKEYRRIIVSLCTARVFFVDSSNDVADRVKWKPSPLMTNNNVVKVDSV
Assay: Intrinsic activity at human cloned MT1 receptor expressed in […] cells by [35S]GTP-gamma-S binding assay relative to melatonin
Assay type: functional, cell-based
Catalogue of compounds with associated Intrinsic activity
Answer using only a numeral; do not append any unit.

COc1ccc2[nH]c(C(=O)OCCCCCCCCOC(=O)c3[nH]c4ccc(OC)cc4c3CCNC(C)=O)c(CCNC(C)=O)c2c1 1
COc1ccc2[nH]cc(CCNC(=O)CCCCCC(=O)NCCc3c[nH]c4ccc(OC)cc34)c2c1 0.35
CCCCCOC(=O)c1[nH]c2ccc(OC)cc2c1CCNC(C)=O 0.06
COc1ccc2[nH]c(C(=O)OCCCCCCCOC(=O)c3[nH]c4ccc(OC)cc4c3CCNC(C)=O)c(CCNC(C)=O)c2c1 0.35
COc1ccc2[nH]c(C(=O)OCCCCCCCCCOC(=O)c3[nH]c4ccc(OC)cc4c3CCNC(C)=O)c(CCNC(C)=O)c2c1 0.33
COc1ccc2[nH]c(C(=O)OCCCCCCCCCOC(=O)c3ccccc3)c(CCNC(C)=O)c2c1 0.75

stdin: // returns reported Intrinsic activity for input COc1ccc2[nH]c(C(=O)OCCCCCCCCCCCCOC(=O)c3[nH]c4ccc(OC)cc4c3CCNC(C)=O)c(CCNC(C)=O)c2c1
stdout: 0.72

stdin: // returns reported Intrinsic activity for input COc1ccc2[nH]c(C(=O)OCCCOC(=O)c3[nH]c4ccc(OC)cc4c3CCNC(C)=O)c(CCNC(C)=O)c2c1
stdout: 0.77

* * *

Target: Melatonin receptor type 1B (Homo sapiens) (UniProt P49286)
Sequence (P49286 whole entry): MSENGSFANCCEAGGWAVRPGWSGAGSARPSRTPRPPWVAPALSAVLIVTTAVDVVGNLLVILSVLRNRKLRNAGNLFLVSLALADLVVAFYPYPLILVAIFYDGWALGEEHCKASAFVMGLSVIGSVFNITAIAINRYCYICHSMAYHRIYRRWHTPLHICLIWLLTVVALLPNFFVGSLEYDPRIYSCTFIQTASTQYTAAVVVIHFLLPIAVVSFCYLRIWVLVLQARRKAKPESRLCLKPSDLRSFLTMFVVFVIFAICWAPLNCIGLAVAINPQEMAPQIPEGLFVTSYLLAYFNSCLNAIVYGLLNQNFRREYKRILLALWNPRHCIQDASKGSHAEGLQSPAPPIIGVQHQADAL
Assay: Intrinsic activity at human cloned MT2 receptor expressed in […] cells by [35S]GTP-gamma-S binding assay relative to melatonin
Type: functional, cell-based
quantity kind: Intrinsic activity
Answer using only a numeral; do not append any unit.

Please review the entries below; each comes with its answer.
COc1ccc2[nH]c(C(=O)OCCCCCCCCCOC(=O)c3ccccc3)c(CCNC(C)=O)c2c1 0.38
COc1ccc2[nH]cc(CCNC(=O)CCCCCCCCC(=O)NCCc3c[nH]c4ccc(OC)cc34)c2c1 0.79
COc1ccc2[nH]c(C(=O)OCCCCCOC(=O)c3[nH]c4ccc(OC)cc4c3CCNC(C)=O)c(CCNC(C)=O)c2c1 0.93
COc1ccc2[nH]c(C(=O)OCCCCCCCCCCOC(=O)c3[nH]c4ccc(OC)cc4c3CCNC(C)=O)c(CCNC(C)=O)c2c1 0.65
COc1ccc2[nH]c(C(=O)OCCCCCCCOC(=O)c3[nH]c4ccc(OC)cc4c3CCNC(C)=O)c(CCNC(C)=O)c2c1 0.08
COc1ccc2[nH]c(C(=O)OCCCCCCCCCCCCOC(=O)c3[nH]c4ccc(OC)cc4c3CCNC(C)=O)c(CCNC(C)=O)c2c1 0.64

We now examine a further molecule.
stdin: Reported Intrinsic activity for Melatonin receptor type 1B (Homo sapiens) (UniProt P49286), given COc1ccc2[nH]c(C(=O)OCCCCCCCCCOC(=O)c3[nH]c4ccc(OC)cc4c3CCNC(C)=O)c(CCNC(C)=O)c2c1 ?
stdout: -0.17

* * *

Molecular target: Melatonin receptor type 1B (Homo sapiens)
Assay: Intrinsic activity at human cloned MT2 receptor expressed in […] cells by [35S]GTP-gamma-S binding assay relative to melatonin
Format: functional, cell-based
Catalogue of compounds with associated Intrinsic activity

Please review the entries below; each comes with its answer.
COc1ccc2[nH]cc(CCNC(=O)CCCCCC(=O)NCCc3c[nH]c4ccc(OC)cc34)c2c1 0.26
CCCCCOC(=O)c1[nH]c2ccc(OC)cc2c1CCNC(C)=O 0.23
COc1ccc2[nH]c(C(=O)OCCCOC(=O)c3[nH]c4ccc(OC)cc4c3CCNC(C)=O)c(CCNC(C)=O)c2c1 0.8

We now examine a further compound.
stdin: // returns reported Intrinsic activity for input COc1ccc2[nH]c(C(=O)OCCCCCCCCOC(=O)c3[nH]c4ccc(OC)cc4c3CCNC(C)=O)c(CCNC(C)=O)c2c1
stdout: 0.9
